melting point listing for selected molecules.

Please review the entries below; each comes with its answer.
>>> print(df.to_string())
                                   molecule  measuredparameter         result
0  O=C(O)[C@H](CCc1ccc(F)cc1F)NC(=O)C(F)(F)F      melting point  62 to 83.5 °C
1  Cc1cc2[nH]c(=O)n(S(=O)(=O)c3ccc(Cl)cc3)c(=O)c2cc1C      melting point  221 to 222 °C

The reported melting point of the molecule CC(C)CC(=O)OC1(C(=O)CO)CCC2C3CC(C)C4=CC(=O)C=CC4(C)C3C(O)CC21C (stereo unspecified) was 164 °C

The reported melting point of the molecule `Cc1ccc(Nc2c(N)cc(C(=O)O)cc2S(N)(=O)=O)c(C)c1` was 241 to 242 °C

The reported melting point of the molecule CCCCOCCOc1ccc(-c2ccc(N3CC(C)C(C)C3)c(C=C(C)C(=O)OCC)c2)cc1 (stereo unspecified) was 67 to 69 °C

The reported melting point of the molecule `CCN(CC)c1nc(C)cc(O)n1` was 131 to 132 °C

The reported melting point of the molecule `COc1cc2cc(/C=C/C#N)sc2cc1OC` was 154 to 158 °C

The reported melting point of the molecule `CCOC(=S)c1cnc(Cc2ccccc2)nc1N` was 117 to 118 °C

The reported melting point of the molecule `COc1ccc(-c2ocnc2-c2cc(OC)c([N+](=O)[O-])c(OC)c2)cc1O` was 186 to 188 °C

The reported melting point of the molecule CC(=O)Nc1ccc(C(=O)NCCN2[C@H](C)Cc3ccsc3[C@@H]2C)cc1 (relative stereo) was 161 to 162 °C

The reported melting point of the molecule `c1csc(NCCc2c[nH]cn2)n1` was 198 to 199 °C
